Cited source for all entries: patent US10933051B2

System: P. aeruginosa FSPa-102
Test: Antimicrobial Susceptibility Test (CLSI), Test Example 3
Format: cell-based
Set-up: unit not given here
Details: Table 6; strain produces IMP-1
Would you kindly list antimicrobial susceptibility, Pa FSPa-102 for each of these molecules?
Numbers only.

Hey, quick one: what's antimicrobial susceptibility, Pa FSPa-102 for each of these?
1. C[C@@H](O)[C@H]1C(=O)N2C(C(=O)O)=C(CN(CCCNC(=O)c3ccc(O)c(O)c3F)CCNC(=O)c3ccc(O)c(O)c3F)[C@H](C)[C@H]12 [Compound 102]
2. C[C@@H](O)[C@H]1C(=O)N2C(C(=O)O)=C(CN(CCCNC(=O)c3ccc(O)c(O)c3)CCNC(=O)c3ccc(O)c(O)c3)[C@H](C)[C@H]12 [Compound 109]
3. C[C@@H](O)[C@H]1C(=O)N2C(C(=O)O)=C(CN(CCCCNC(=O)c3ccc(O)c(O)c3F)CCCNC(=O)c3ccc(O)c(O)c3F)[C@H](C)[C@H]12 [Compound 104]
4. C[C@@H](O)[C@H]1C(=O)N2C(C(=O)O)=C(CN(C)CC(=O)N(CCCNC(=O)c3ccc(O)c(O)c3F)CCCNC(=O)c3ccc(O)c(O)c3F)[C@H](C)[C@H]12 [Compound 115]
5. C[C@@H](O)[C@H]1C(=O)N2C(C(=O)O)=C(CN(CCCNC(=O)c3ccc(O)c(O)c3F)CCCNC(=O)c3ccc(O)c(O)c3F)[C@H](C)[C@H]12 [Compound 103]
6. C[C@@H](O)[C@H]1C(=O)N2C(C(=O)O)=C(CN(CCCCNC(=O)c3ccc(O)c(O)c3Cl)CCCNC(=O)c3ccc(O)c(O)c3Cl)[C@H](C)[C@H]12 [Compound 108]
7. C[C@@H](O)[C@H]1C(=O)N2C(C(=O)[O-])=C(CN(C)CC[N+](C)(CCCNC(=O)c3ccc(O)c(O)c3F)CCCNC(=O)c3ccc(O)c(O)c3F)[C@H](C)[C@H]12 [Compound 118]

1
4
2
2
2
2
4

Hey, quick one: what's antimicrobial susceptibility, Pa FSPa-102 for each of these?
1. C[C@@H](O)[C@H]1C(=O)N2C(C(=O)O)=C(CN(C)CC(=O)N(CCCNC(=O)c3ccc(O)c(O)c3F)CCCNC(=O)c3ccc(O)c(O)c3F)[C@H](C)[C@H]12 [Compound 117]
2. C[C@@H](O)[C@H]1C(=O)N2C(C(=O)O)=C(CN(CCNC(=O)c3ccc(O)c(O)c3Cl)CCNC(=O)c3ccc(O)c(O)c3Cl)[C@H](C)[C@H]12 [Compound 105]
3. C[C@@H](O)[C@H]1C(=O)N2C(C(=O)O)=C(CN(CCCNC(=O)c3cccc(O)c3O)CCNC(=O)c3cccc(O)c3O)[C@H](C)[C@H]12 [Compound 112]

1. 2
2. 1
3. 16

Hey, quick one: what's antimicrobial susceptibility, Pa FSPa-102 for each of these?
1. C[C@@H](O)[C@H]1C(=O)N2C(C(=O)O)=C(CN(CCCCNC(=O)c3ccc(O)c(O)c3)CCCNC(=O)c3ccc(O)c(O)c3)[C@H](C)[C@H]12 [Compound 111]
2. C[C@@H](O)[C@H]1C(=O)N2C(C(=O)[O-])=C(C[N+](C)(CCCNC(=O)c3ccc(O)c(O)c3F)CCCNC(=O)c3ccc(O)c(O)c3F)[C@H](C)[C@H]12 [Compound 114]
3. C[C@@H](O)[C@H]1C(=O)N2C(C(=O)O)=C(CN(CCCNC(=O)c3ccc(O)c(O)c3Cl)CCNC(=O)c3ccc(O)c(O)c3Cl)[C@H](C)[C@H]12 [Compound 106]
4. C[C@@H](O)[C@H]1C(=O)N2C(C(=O)O)=C(CN(CCNC(=O)c3ccc(O)c(O)c3F)CCNC(=O)c3ccc(O)c(O)c3F)[C@H](C)[C@H]12 [Compound 101]
5. C[C@@H](O)[C@H]1C(=O)N2C(C(=O)O)=C(CN(CCCNC(=O)c3ccc(O)c(O)c3)CCCNC(=O)c3ccc(O)c(O)c3)[C@H](C)[C@H]12 [Compound 110]
6. C[C@@H](O)[C@H]1C(=O)N2C(C(=O)O)=C(CN(CCCNC(=O)c3ccc(O)c(O)c3Cl)CCCNC(=O)c3ccc(O)c(O)c3Cl)[C@H](C)[C@H]12 [Compound 107]

[4, 4, 1, 1, 8, 1]
